These measurements were taken from patent US11866450B2.

measurement target: CFTR-mediated chloride transport (Homo sapiens, UniProt P13569)
Sequence (P13569 whole entry, looked up): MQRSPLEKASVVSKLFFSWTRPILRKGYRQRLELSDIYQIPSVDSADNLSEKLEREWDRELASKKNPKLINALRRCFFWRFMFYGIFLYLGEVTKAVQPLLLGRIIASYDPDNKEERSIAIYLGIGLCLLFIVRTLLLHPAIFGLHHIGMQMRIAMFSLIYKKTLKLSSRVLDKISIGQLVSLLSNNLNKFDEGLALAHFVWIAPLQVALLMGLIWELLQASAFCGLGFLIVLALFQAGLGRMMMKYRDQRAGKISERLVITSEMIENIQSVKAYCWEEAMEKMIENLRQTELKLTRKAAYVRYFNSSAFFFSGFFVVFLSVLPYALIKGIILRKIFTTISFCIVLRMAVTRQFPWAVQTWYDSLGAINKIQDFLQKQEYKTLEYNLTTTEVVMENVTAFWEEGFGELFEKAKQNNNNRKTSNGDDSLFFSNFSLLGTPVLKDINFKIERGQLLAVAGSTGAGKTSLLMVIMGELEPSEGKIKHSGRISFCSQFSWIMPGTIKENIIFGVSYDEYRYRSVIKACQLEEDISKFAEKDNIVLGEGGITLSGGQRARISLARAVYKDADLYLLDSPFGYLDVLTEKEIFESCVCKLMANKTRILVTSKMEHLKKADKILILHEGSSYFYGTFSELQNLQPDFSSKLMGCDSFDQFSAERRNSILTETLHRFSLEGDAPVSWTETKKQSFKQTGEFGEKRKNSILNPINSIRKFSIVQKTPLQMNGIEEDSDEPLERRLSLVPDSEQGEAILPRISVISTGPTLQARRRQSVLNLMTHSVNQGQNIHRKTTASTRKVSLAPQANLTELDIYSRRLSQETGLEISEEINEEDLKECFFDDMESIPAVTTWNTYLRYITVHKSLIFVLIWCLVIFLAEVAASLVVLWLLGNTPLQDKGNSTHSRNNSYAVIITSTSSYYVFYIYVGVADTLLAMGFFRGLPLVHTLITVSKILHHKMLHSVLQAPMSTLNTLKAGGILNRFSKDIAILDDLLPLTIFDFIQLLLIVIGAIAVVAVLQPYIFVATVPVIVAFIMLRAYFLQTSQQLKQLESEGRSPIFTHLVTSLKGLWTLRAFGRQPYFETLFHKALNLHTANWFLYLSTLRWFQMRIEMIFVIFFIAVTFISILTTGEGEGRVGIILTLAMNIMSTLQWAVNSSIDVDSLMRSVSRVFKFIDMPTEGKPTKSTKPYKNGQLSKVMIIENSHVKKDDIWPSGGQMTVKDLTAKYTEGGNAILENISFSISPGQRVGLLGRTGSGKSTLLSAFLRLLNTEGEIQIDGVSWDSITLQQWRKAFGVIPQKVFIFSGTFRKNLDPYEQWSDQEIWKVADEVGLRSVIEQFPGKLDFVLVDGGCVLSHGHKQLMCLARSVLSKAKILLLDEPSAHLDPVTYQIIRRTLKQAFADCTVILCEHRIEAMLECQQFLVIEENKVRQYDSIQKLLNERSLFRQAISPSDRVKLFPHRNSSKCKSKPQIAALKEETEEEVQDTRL
Assay type: cell-based
condition label: enteroid cells incubated with test compound 18-24 hours; acute 10 μM forskolin and 300 nM Compound III; % of chloride transport with 3 μM Compound A, 3 μM Compound II and 300 nM acute Compound III triple combination control
Method: Base medium (ADF+++) consisted of Advanced DMEM/Ham's F12, 2 mM Glutamax, 10 mM HEPES, […] penicillin/streptomycin. […] Enteroid cells were incubated with test compound in IEMM for 18-24 hours at 37° C., 95% humidity and 5% CO2. […] Chloride transport was initiated by addition of Chloride Free Dye Stimulation Solution and the fluorescence signal was read for 15 min. […]
assay metric: Max. Activity

- CC1(C)CC2CCCNc3cccc(n3)S(=O)(=O)NC(=O)c3ccc(-n4ccc(OCC5(C(F)(F)F)CC5)n4)nc3N1C2 (racemic) [Compound 15]: +++ (+++ is >60%)
- CC1(C)C[C@H]2CCNc3cccc(n3)S(=O)(=O)NC(=O)c3ccc(-n4ccc(OCCC(C5CC5)C5CC5)n4)nc3N1C2 (single isomer, unassigned) [Compound 250]: ++ (++ is 30-60%)
- CC1(C)CCC2CCNc3cccc(n3)S(=O)(=O)NC(=O)c3ccc(-n4ccc(OCCC5(C(F)(F)F)CC5)n4)nc3N21 (racemic) [Compound 108]: ++ (++ is 30-60%)
- CC1(C)C[C@@H]2CCCNc3cccc(n3)S(=O)(=O)NC(=O)c3ccc(N4CCN(CCC5(C(F)(F)F)CC5)C4=O)nc3N1C2 [Compound 211]: ++ (++ is 30-60%)

API: the following record is the query input.
Query block: Reported Max. Activity for CFTR-mediated chloride transport (Homo sapiens, UniProt P13569), given CC1(C)C[C@@H]2CCCn3ccc(n3)S(=O)(=O)NC(=O)c3ccc(-n4ccc(OCCC5(C(F)(F)F)CC5)n4)nc3N1C2 [Compound 85] ?
Result block: +++ (+++ is >60%)

----------
measurement target: CFTR-mediated chloride transport (Homo sapiens)
Format: cell-based
condition label: enteroid cells incubated with test compound 18-24 hours; acute 10 μM forskolin and 300 nM Compound III; % of chloride transport with 3 μM Compound A, 3 μM Compound II and 300 nM acute Compound III triple combination control
assay metric: Max. Activity

• CC(C)C(COc1ccn(-c2ccc3c(n2)N2C[C@@H](CC2(C)C)OCCNc2cccc(n2)S(=O)(=O)NC3=O)n1)C(C)C (single isomer, unassigned) [Compound 248] = ++ (++ is 30-60%)
• CC1(C)C[C@H]2CCCNc3cccc(n3)S(=O)(=O)NC(=O)c3ccc(-n4ccc(OCC5(C(F)(F)F)CC5)n4)nc3N1C2 (single isomer, unassigned) [Compound 21] = ++ (++ is 30-60%)
• CC1(C)C[C@H]2CCCCc3ccc(cc3)S(=O)(=O)NC(=O)c3ccc(-n4ccc(OCCC5(C(F)(F)F)CC5)n4)nc3N1C2 (single isomer, unassigned) [Compound 54] = ++ (++ is 30-60%)

----------
measurement target: CFTR-mediated chloride transport (Homo sapiens, UniProt P13569)
Format: cell-based
condition label: enteroid cells incubated with test compound 18-24 hours; acute 10 μM forskolin and 300 nM Compound III; % of chloride transport with 3 μM Compound A, 3 μM Compound II and 300 nM acute Compound III triple combination control
assay metric: Max. Activity

Example entries and their recorded answers appear below.
* [2H]c1ccc2nc1NCCC[C@@H]1CN(c3nc(-n4ccc(OCC([2H])([2H])C5C6(CC6)C56CC6)n4)ccc3C(=O)NS2(=O)=O)C(C)(C)C1 [Compound 298] | +++ (+++ is >60%)
* CC1(C)C[C@H]2C[C@@H](F)CNc3cccc(n3)S(=O)(=O)NC(=O)c3ccc(-n4ccc(OCCC5C6(CC6)C56CC6)n4)nc3N1C2 (single isomer, unassigned) [Compound 307] | + (+ is <30%)
* CC1(C)CC2CN1c1nc(-n3ccc(OCCC4(C(F)(F)F)CC4)n3)ccc1C(=O)NS(=O)(=O)c1cccc(n1)N2 (stereo not drawn) [Compound 31] | + (+ is <30%)
* [2H]C([2H])(COc1ccn(-c2ccc3c(n2)N2C[C@@H](CCCNc4cccc(n4)S(=O)(=O)NC3=O)CC2(C)C)n1)C([2H])([2H])C1(C(F)(F)F)CC1 [Compound 287] | ++ (++ is 30-60%)
* CC1(C)CC2CNc3cccc(n3)S(=O)(=O)NC(=O)c3ccc(-n4ccc(OCCC5(C(F)(F)F)CC5)n4)nc3N1C2 (stereo not drawn) [Compound 17] | ++ (++ is 30-60%)

Query block: What value of Max. Activity has been recorded for this entry: CC1(C)C[C@@H]2CCCNc3cc(O)cc(n3)S(=O)(=O)NC(=O)c3ccc(-n4ccc(OCCC5C6(CC6)C56CC6)n4)nc3N1C2 [Compound 264]
Result block: +++ (+++ is >60%)

Query block: What value of Max. Activity has been recorded for this entry: CC1(C)CCC2CNc3cccc(n3)S(=O)(=O)NC(=O)c3ccc(-n4ccc(OCCC5(C(F)(F)F)CC5)n4)nc3N21 (stereo not drawn) [Compound 41]
Result block: + (+ is <30%)

Query block: What value of Max. Activity has been recorded for this entry: CC1(C)C[C@@H]2CCCNc3cccc(n3)S(=O)(=O)NC(=O)c3ccc(N4CCC5(CCCCC5)C4=O)nc3N1C2 [Compound 222]
Result block: ++ (++ is 30-60%)

Query block: What value of Max. Activity has been recorded for this entry: CC1(C)C[C@@H]2CCCNc3cccc(n3)S(=O)(=O)NC(=O)c3ccc(-n4ccc(OCC(=O)C5C6(CC6)C56CC6)n4)nc3N1C2 [Compound 258]
Result block: +++ (+++ is >60%)

Query block: What value of Max. Activity has been recorded for this entry: CC1(C)CC[C@H]2CCCNc3cccc(n3)S(=O)(=O)NC(=O)c3ccc(-n4ccc(OCC5C6(CC6)C56CC6)n4)nc3N21 (single isomer, unassigned) [Compound 125]
Result block: + (+ is <30%)

Query block: What value of Max. Activity has been recorded for this entry: Cc1cn2nc1S(=O)(=O)NC(=O)c1ccc(-n3ccc(OCCC(C4CC4)C4CC4)n3)nc1N1C[C@H](CCC2)CC1(C)C (single isomer, unassigned) [Compound 202]
Result block: ++ (++ is 30-60%)

Query block: What value of Max. Activity has been recorded for this entry: Cc1nn2cc1S(=O)(=O)NC(=O)c1ccc(-n3ccc(OCC(C)(C)C(F)(F)F)n3)nc1N1C[C@H](CCC2)CC1(C)C (single isomer, unassigned) [Compound 291]
Result block: ++ (++ is 30-60%)

----------
measurement target: CFTR-mediated chloride transport (Homo sapiens, UniProt P13569)
Assay type: cell-based
condition label: enteroid cells incubated with test compound 18-24 hours; acute 10 μM forskolin and 300 nM Compound III; % of chloride transport with 3 μM Compound A, 3 μM Compound II and 300 nM acute Compound III triple combination control
assay metric: Max. Activity

Example entries and their recorded answers appear below.
* CC1(C)C[C@@H]2CN1c1nc(-n3ccc(OCCC(C4CC4)C4CC4)n3)ccc1C(=O)NS(=O)(=O)c1cccc(n1)NCCO2 (single isomer, unassigned) [Compound 163] | ++ (++ is 30-60%)
* CC1(C)C[C@@H]2CCCNc3cccc(n3)S(=O)(=O)NC(=O)c3ccc(N4CC[C@H](OCC56CC7CC(CC(C7)C5)C6)C4=O)nc3N1C2 (single isomer, unassigned) [Compound 244] | ++ (++ is 30-60%)
* CC1(C)C2CCNc3cccc(n3)S(=O)(=O)NC(=O)c3ccc(-n4ccc(OCCC5(C(F)(F)F)CC5)n4)nc3N1CC2 (stereo not drawn) [Compound 236] | + (+ is <30%)
* Cc1c2cnn1CCCC1CN(c3nc(-n4ccc(OCC(C)(C)C(F)(F)F)n4)ccc3C(=O)NS2(=O)=O)C(C)(C)C1 (stereo not drawn) [Compound 282] | + (+ is <30%)

API: the following record is the query input.
Query block: What value of Max. Activity has been recorded for this entry: CC1(C)C[C@@H]2CCCNc3cccc(n3)S(=O)(=O)NC(=O)c3ccc(N4CC[C@H](OCCC56CC7CC(CC(C7)C5)C6)C4=O)nc3N1C2 (single isomer, unassigned) [Compound 240]
Result block: ++ (++ is 30-60%)

----------
measurement target: CFTR-mediated chloride transport (Homo sapiens)
condition label: enteroid cells incubated with test compound 18-24 hours; acute 10 μM forskolin and 300 nM Compound III
pEC50: −log10 of the molar value.
pEC50 listing for selected compounds.

Example entries and their recorded answers appear below.
• Cc1nn2cc1S(=O)(=O)NC(=O)c1ccc(-n3ccc(OCCC4(C(F)(F)F)CC4)n3)nc1N1C[C@H](CCCC2)CC1(C)C (single isomer, unassigned) [Compound 91] = < 5.52
• CC1(C)C[C@H]2CCCCNc3ccc(cn3)S(=O)(=O)NC(=O)c3ccc(-n4ccc(OCC5C6(CC6)C56CC6)n4)nc3N1C2 (single isomer, unassigned) [Compound 121] = > 6.00
• CC1(C)C[C@@H]2CCCn3ccc(n3)S(=O)(=O)NC(=O)c3ccc(-n4ccc(OCCC5(C(F)(F)F)CC5)n4)nc3N1C2 = > 6.00
• Cc1nn2cc1S(=O)(=O)NC(=O)c1ccc(-n3ccc(OCC(C)(C)C(F)(F)F)n3)nc1N1C[C@H](CCC2)CC1(C)C (single isomer, unassigned) [Compound 291] = > 6.00
• CC1(C)C[C@H]2CCCCn3ccc(n3)S(=O)(=O)NC(=O)c3ccc(-n4ccc(OCCCC5(C(F)(F)F)CC5)n4)nc3N1C2 (single isomer, unassigned) [Compound 276] = > 6.00
• Cc1c2cnn1CCC[C@@H]1CN(c3nc(-n4ccc(OCCC5(C(F)(F)F)CC5)n4)ccc3C(=O)NS2(=O)=O)C(C)(C)C1 (single isomer, unassigned) [Compound 111] = > 6.00
• CC1(C)C[C@@H]2CCCNc3cccc(n3)S(=O)(=O)NC(=O)c3ccc(-n4ccc(OC[C@@H](O)CC5(C(F)(F)F)CC5)n4)nc3N1C2 (single isomer, unassigned) [Compound 283] = > 6.00
• CC1(C)CC2CCCCn3ccc(n3)S(=O)(=O)NC(=O)c3ccc(-n4ccc(OCCC5(C(F)(F)F)CC5)n4)nc3N1C2 (centres unmarked) = 5.52 to 6.00
• CC1(C)C[C@H]2CCCNc3ccc(cn3)S(=O)(=O)NC(=O)c3ccc(-n4ccc(OCCC5(C(F)(F)F)CC5)n4)nc3N1C2 (single isomer, unassigned) [Compound 73] = > 6.00
• Cc1ccc2nc1S(=O)(=O)NC(=O)c1ccc(-n3ccc(OCCC4(C(F)(F)F)CC4)n3)nc1N1C[C@H](CCCN2)CC1(C)C (single isomer, unassigned) [Compound 149] = > 6.00

API: the following record is the query input.
Query block: Reported pEC50 for CFTR-mediated chloride transport (Homo sapiens), given CC1(C)C[C@H]2CCCn3ccc(n3)S(=O)(=O)NC(=O)c3ccc(-n4ccc(OCCC5C(C)(C)C5(C)C)n4)nc3N1C2 (single isomer, unassigned) [Compound 206] ?
Result block: > 6.00
